Test system: MS2 coat protein
Measurement notes: apparent KD of MS2 coat protein; designed switch direction (-1 OFF switch, 1 ON switch): 1; higher = weaker reporter binding
Experimental conditions: input ligand: microRNA oligo, concentration not stated
Recorded endpoint: apparent KD of MS2 coat protein (µM)
Field format: number, assumed µM, no unit text.

Consider the worked cases shown below.
UGCCUGAGUCGAGGAUAUUAUGGAUCAAUUAAUACAUGAGGAUCACCCAUGUAAUUAAUUUAACAUGAGAAGGUGACUCAGGCA [SSNG2/10-B2] (Eterna round: R96, puzzle: Same State NG 2) : 0.0122
UUAGAAUUGCAAGGAUAUCUAAUUUAGAUAGUAAGAGAAGGUGCUUGAUAGUUACAUGAGGAUCACCCAUGUUUUUGGGUUUAU [JR_SSNG1_Sub058] (Eterna round: R96, puzzle: Same State NG 1) : 0.416
CUGAGCAGUCAAGGAUAUCACGUCGAUUAGACGUGAGAAGGUGACCAAUACAUGAGGAUCACCCAUGUAAUACAUGAAGCUCAG [SSNG1/12-A2] (Eterna round: R96, puzzle: Same State NG 1) : 0.0285
GUAGCAUACCGAGGAUAUUCAUAAACAUGAGGAUCACCCAUGUAGGCCAGCAUUAGCUGGCCUUGGGAGAAGGCGGAAUGCUAC [Xeonanis - 20 Mod51] (Eterna round: R96, puzzle: Same State NG 2) : 0.0539
GGUAUCAUCACAGGAUAUGCUAUCCUUUGGGUAGCAGAAGGGUGGAACAUGAGGAUCACCCAUGUGGUGCCAGGGCGUGAGCCC [JL SSNG1 1.89] (Eterna round: R96, puzzle: Same State NG 1) : 0.583
ACAUGACAUGACAUGAGGAUCACCCAUGUGAGGAUCACCCGGGAGGAUAUAGCCCAUGUGGAUCACUAGAAGGCCCUGAGGAUC [Same State NG3 S1] (Eterna round: R96, puzzle: Same State NG 3) : 0.0395
GGUAGGUUACUACCAAACAUGAGGAUCACCCAUGUUAAUGGGAAGGAUAUGGUACCUAUUUGGUACCAGAAGGUCCAAAUAAUU [Mat - Same State NG 3 - JL Mod - D97] (Eterna round: R96, puzzle: Same State NG 3) : 0.261
UGCCUGAGUCGAGGAUAUUAUGGAUCCUUUAAUACAUGAGGAUCACCCAUGUAAUUAAUUAUACAUGAGAAGGCGACUCAGGCA [SSNG2/11-A2] (Eterna round: R96, puzzle: Same State NG 2) : 0.097

Shift focus to the following entry.
Measured on MS2 coat protein, UUCUGAUAGCGAGGAUAUCGCGAGGAUCACCCGUGAGAAGGCGCAGAGCCGAGGAUCACCCGGCUGAUCCUGAGAAGGAGGUCA (Eterna round: R96, puzzle: Same State NG 1) has a documented apparent KD of MS2 coat protein of 0.333

* * *

Test system: MS2 coat protein
Measurement notes: apparent KD of MS2 coat protein; designed switch direction (-1 OFF switch, 1 ON switch): -1; higher = weaker reporter binding
Experimental conditions: Eterna round: R95; input ligand: none
Below, each of the sequences is paired with its reported apparent KD of MS2 coat protein value.
Field format: number, assumed nM, no unit text.

Consider the worked cases shown below.
AAGAACGUAGGAUAUACAUGAGGAUCACCCAUGUGAGGAAGGAGUAGGAAGCGUGGAAGUAGAAGGACGGAGAG [JR_Exclu3_Sub075] (puzzle: Exclusion 3) : 29.3
CGUAUCUUUCACGUGAGUAGUGGGUGCAACAGGUGGGUCACAUGAGGAUCACCCAUGUACUCACUUGCUCGUCUUAU [Grok-var2-07] (puzzle: Sensor v3, turn-off variant 2) : 21.8
ACAAGCGAAAGGCUCGUCUUAUUUUUGUAGAGGUUCUAAACAUGAGGAUCACCCAUGUAGUGGUUAUGGUGGAGGUA [JR_SV3TOV2_Sub070] (puzzle: Sensor v3, turn-off variant 2) : 74.6
CUGGUCCGAGGAUAUAUUAAGUGAUACAUGAGGAUCACCCAUGUUAUUUGAUGGAUGUAAAUAGAAGGCGGACUAG [JL-ex5-3.17] (puzzle: Exclusion 5) : 45.2
GAGGCAUGCUGAGGUCCACACAUGAGGAUCACCCAUGUAAUGACAAGCUUUUUCCUCGUCUUAUCGCUAUCGCGUUC [Dilaenla] (puzzle: Sensor v3, turn-off variant 1) : 15
AAGUAUAGAGGAUAUAGUGAGUACUACAUGAGGAUCACCCAUGUUCUUCAAAGCGUACUUCUAGAAGGCUGUUAAA [EX-5 Malc#17] (puzzle: Exclusion 5) : 214
UUGAAGUAAGGAUAUACAUGAGGAUCACCCAUGUAAAGGAAAGUAAUGGGAGUAGGAAGUAGAAGGUACGAGGA [JR_Exclu3_Sub062] (puzzle: Exclusion 3) : 134

Shift focus to the following entry.
CGUGACUCAGGAUAUCGAUUAUAUCACAUGAGGAUCACCCAUGUCCAGCGAAAGCUGGAGUGAGAAGGGAGUCACG [Fiskers Ex 5 - 49] (puzzle: Exclusion 5) has a reported apparent KD of MS2 coat protein of 109
